molecules and their reported linear response range
- Assay target: PcaR transcription factor (Pseudomonas putida, UniProt Q52154)
- Sequence (Q52154 whole entry L6P/V7A/D9E/P10S/V11A/P15S/S20A/A21P/M23L/S96T/G197D/H210N/P212A): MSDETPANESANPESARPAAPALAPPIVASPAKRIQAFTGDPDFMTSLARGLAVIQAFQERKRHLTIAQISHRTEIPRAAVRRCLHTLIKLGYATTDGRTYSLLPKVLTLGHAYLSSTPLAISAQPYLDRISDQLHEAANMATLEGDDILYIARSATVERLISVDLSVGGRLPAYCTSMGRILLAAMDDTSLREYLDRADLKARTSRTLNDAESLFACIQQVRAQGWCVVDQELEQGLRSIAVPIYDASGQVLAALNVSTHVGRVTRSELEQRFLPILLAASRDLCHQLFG
- Run conditions: plasmids S3/S2, E. coli K12, tetracycline medium, 12 hours, exogenously added dicarboxylic acid

Some solved cases for reference:
O=C(O)CCCC(=O)O | 1 to 2.5 mM
O=C(O)CCCCCC(=O)O | 0.5 to 6 mM

Q) Report linear response range on PcaR transcription factor (Pseudomonas putida, UniProt Q52154) for this entry: O=C(O)CCC(=O)O
A) 1.5 to 4 mM

Q) Give linear response range only, for O=C(O)CCCCC(=O)O , using PcaR transcription factor (Pseudomonas putida, UniProt Q52154) data.
A) 0.25 to 6 mM
